Values were extracted from patent US12358915B2.

Target Desc: METTL3/14 (Homo sapiens)
Construct: The enzyme used was full-length his-tagged METTL3; His; made in house
Measurement Protocol: METTL3/14 methyltransferase assay (METTL3_14 RFMS, RapidFire mass spectrometry)
Format: biochemical
Measurement Setup: 5 nM METTL3/14, 0.2 μM RNA substrate, 0.5 μM SAM; lower limit of the assay IC50=5 nM; Compounds 63-265; read-out: METTL3_14 RFMS IC50
Item-by-item account of IC50
Metric Name: IC50 (nM)

O=C(NCc1cn2cc(CNCCC3CC(F)(F)C3)ccc2n1)c1cc(=O)n2ccccc2n1 | 41.8
CC(C)(C)CNCc1ccc2nc(CNC(=O)c3cc(=O)c4ccccc4o3)cn2c1 | 50.6
CN(Cc1ccc2nc(CNC(=O)c3cc(=O)n4ccccc4n3)cn2c1)CC1CCCCC1 | 244
O=C(NCc1cn2cc(CNCC3CC3)ccc2n1)c1cc(=O)n2ccccc2n1 | 36.5

* * *

Target Desc: METTL3/14 (Homo sapiens)
Construct: The enzyme used was full-length his-tagged METTL3; His; made in house
Measurement Protocol: METTL3/14 methyltransferase assay (METTL3_14 RFMS, RapidFire mass spectrometry)
Type: biochemical
Measurement Setup: 5 nM METTL3/14, 0.2 μM RNA substrate, 0.5 μM SAM; lower limit of the assay IC50=5 nM; Compounds 63-265; read-out: METTL3_14 RFMS IC50
Metric Name: IC50 (µM)

O=C(NCc1cn2cc(CNC3CNC3)ccc2n1)c1cc(=O)n2ccccc2n1 | 2.11
O=C(NCc1cn2cc(CNCC3CCCCO3)ccc2n1)c1cc(=O)n2ccccc2n1 (stereo not shown) | 0.114
O=C(NCc1cn2cc(CNCC3CC3(F)F)ccc2n1)c1cc(=O)n2ccccc2n1 (stereo not shown) | 0.0429
O=C(NCc1cn2cc(CNCc3cccc(C4CC4)c3)ccc2n1)c1cc(=O)n2ccccc2n1 | 0.112

* * *

Target Desc: METTL3/14 (Homo sapiens, UniProt Q86U44)
Construct: The enzyme used was full-length his-tagged METTL3; His; made in house
Sequence (Q86U44 whole entry): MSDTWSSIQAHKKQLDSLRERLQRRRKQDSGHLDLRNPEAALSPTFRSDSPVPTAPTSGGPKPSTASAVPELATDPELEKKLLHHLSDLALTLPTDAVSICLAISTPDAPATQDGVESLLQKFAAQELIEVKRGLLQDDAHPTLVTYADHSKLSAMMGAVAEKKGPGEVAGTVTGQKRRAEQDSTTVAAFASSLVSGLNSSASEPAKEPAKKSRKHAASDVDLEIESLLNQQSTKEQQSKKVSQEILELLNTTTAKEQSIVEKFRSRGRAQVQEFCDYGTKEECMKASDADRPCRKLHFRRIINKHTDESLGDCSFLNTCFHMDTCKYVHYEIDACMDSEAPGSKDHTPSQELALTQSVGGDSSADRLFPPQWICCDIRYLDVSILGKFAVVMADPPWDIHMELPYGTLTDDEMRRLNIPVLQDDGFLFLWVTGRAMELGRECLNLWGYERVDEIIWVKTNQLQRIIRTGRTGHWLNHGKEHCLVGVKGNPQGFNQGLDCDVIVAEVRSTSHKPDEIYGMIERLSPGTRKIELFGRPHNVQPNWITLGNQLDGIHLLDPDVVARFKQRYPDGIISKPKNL
Sequence (Q9HCE5 whole entry partner): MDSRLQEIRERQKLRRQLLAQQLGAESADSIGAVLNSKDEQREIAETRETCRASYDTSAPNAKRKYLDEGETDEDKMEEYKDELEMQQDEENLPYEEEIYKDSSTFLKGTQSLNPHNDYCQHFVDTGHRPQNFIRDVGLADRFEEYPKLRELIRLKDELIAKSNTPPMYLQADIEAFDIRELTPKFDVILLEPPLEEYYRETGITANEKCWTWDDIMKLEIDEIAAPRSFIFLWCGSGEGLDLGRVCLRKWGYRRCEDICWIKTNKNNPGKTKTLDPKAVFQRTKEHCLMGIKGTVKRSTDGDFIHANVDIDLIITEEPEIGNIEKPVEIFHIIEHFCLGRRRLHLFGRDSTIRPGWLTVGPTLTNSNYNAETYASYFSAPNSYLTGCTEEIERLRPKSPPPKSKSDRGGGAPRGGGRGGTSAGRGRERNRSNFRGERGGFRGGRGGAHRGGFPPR
Measurement Protocol: METTL3/14 methyltransferase assay (METTL3_14 RFMS, RapidFire mass spectrometry);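 further: recombinant His-tagged METTL3 with FLAG-tagged METTL14 from baculovirus, SAH product quantified by mass spectrometry against isotope-labelled internal standards, 60 min at room temperature, scaled between no-RNA and DMSO-only wells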
Type: biochemical
Measurement Setup: 5 nM METTL3/14, 0.2 μM RNA substrate, 0.5 μM SAM; lower limit of the assay IC50=5 nM; Compounds 63-265; read-out: METTL3_14 RFMS IC50
Metric Name: IC50 (nM)

O=C(NCc1cn2cc(CNCCC(F)(F)F)ccc2n1)c1cc(=O)n2ccccc2n1 | 25.5
COC(=O)C1CCCN(Cc2ccc3nc(CNC(=O)c4cc(=O)n5ccccc5n4)cn3c2)C1 (centres unmarked) | 1260
CC1(CNCc2ccc3nc(CNC(=O)c4cc(=O)n5ccccc5n4)cn3c2)CCCCC1 | 15
O=C(NCc1cn2cc(CNCc3cncs3)ccc2n1)c1cc(=O)n2ccccc2n1 | 318
OCc1ccc2nc(Cn3cc(-c4cc(Br)cc5[nH]ncc45)nn3)cn2c1 | 207
O=C(NCc1cn2cc(CNCCOC(F)(F)F)ccc2n1)c1cc(=O)n2ccccc2n1 | 131
O=C(NCc1cn2cc(CN3CCC4(CC3)CC4)ccc2n1)c1cc(=O)n2ccccc2n1 | 14.9
COC(=O)C(NCc1ccc2nc(CNC(=O)c3cc(=O)n4ccccc4n3)cn2c1)C(C)C (centres unmarked) | 332
O=C(NCc1cn2cc(CNC(=O)C3CCCCC3)ccc2n1)c1cc(=O)n2ccccc2n1 | 850
CC(C)(C)CNCc1ccc2nc(CNC(=O)c3cc(=O)n4ccccc4n3)cn2c1 | 16.4
O=C(NCc1cn2cc(CNCC3CCC(F)(F)C3)ccc2n1)c1cc(=O)n2ccccc2n1 (centres unmarked) | 19.3
O=C(NCc1cn2cc(CNCCF)ccc2n1)c1cc(=O)n2ccccc2n1 | 333
CC(C)(C)CNCc1ccc2nc(Cn3cc(-c4cncc5[nH]ncc45)nn3)cn2c1 | 246
O=C(NCc1cn2cc(CN3CCN(c4ccccc4)CC3)ccc2n1)c1cc(=O)n2ccccc2n1 | 206
CC(C)(C)[C@@H]1COC[C@H](c2ccc3nc(CNC(=O)c4cc(=O)n5ccccc5n4)cn3c2)N1 | 100
CC1(NCc2ccc3nc(CNC(=O)c4cc(=O)n5ccccc5n4)cn3c2)CCCCC1 | 25.1
CS(=O)(=O)CCNCc1ccc2nc(CNC(=O)c3cc(=O)n4ccccc4n3)cn2c1 | 947
